biological target: HLA-A*02:02; assay: IEDB peptide-MHC binding, purified MHC/competitive/radioactivity; filed as Kd, often an IC50 or EC50 that approximates it; bounds were set here for any values at or beyond the usual limits of such assays; conditions: source organism: Vaccinia virus WR
Mark yes (1) for Kd under 2000 nM, no (0) if at or over.

sequence_code | assigned_label
VILFIMFMLI | yes (1)
FVSTMPVET | yes (1)
KTEHCDDFM | no (0)
FMYTKHSML | yes (1)
YIIRVTTEL | yes (1)
IVNTTYDFL | yes (1)
STVDVRNIVT | no (0)
LLNMRDLIVT | yes (1)

**Query** Please determine if `LTDVEKRIL` is below 2000 nM in terms of Kd.
**Result** no (0)

**Query** Please check: Kd for `SLFIESSICL` , strictly under 2000 nM or not?
**Result** yes (1)

**Query** Hi there! Is Kd for `VLQQNNSFI` below 2000 nM, do you know?
**Result** yes (1)

**Query** Kd under 2000 nM? Item: `RTRCKYVGCT`
**Result** yes (1)

**Query** Regarding `DIDLLFNEKL` , kindly confirm whether its Kd is beneath 2000 nM.
**Result** no (0)

**Query** Consider `ELKHGLLDSI` . Does its Kd lie strictly below 2000 nM?
**Result** yes (1)

**Query** Lab log: compare recorded Kd with 2000 nM; is it strictly lower for `LAEYIRHRNT` ?
**Result** no (0)

**Query** Bench note: check whether `EIARIENEM` shows Kd below 2000 nM
**Result** yes (1)

**Query** Quick check: Kd of `AVLSEYETMV` under 2000 nM?
**Result** yes (1)

---

Listing of recorded pKd by entry.
molecular target: HLA-B*54:01; test: IEDB peptide-MHC binding, purified MHC/competitive/radioactivity; filed as Kd, often an IC50 or EC50 that approximates it; bounds were set here for any values at or beyond the usual limits of such assays; conditions: source organism: Vaccinia virus WR
pKd: −log10 of the molar value.

Recorded results for 2 sequences are shown here.
sequence_code | value_reported
YIIRVTTEL | ≤ 4.11
MVIENGILKK | ≤ 4.16

We next turn to a different sequence, shown below.
**Query** What does the data say about its pKd? Entry: `VPSVNEYHML`
**Result** ≤ 4.16

---

molecular target: HLA-A*01:01; assay: IEDB peptide-MHC binding, purified MHC/competitive/radioactivity; filed as Kd, often an IC50 or EC50 that approximates it; bounds were set here for any values at or beyond the usual limits of such assays; details: source organism: Lymphocytic choriomeningitis virus (strain Armstrong)
Listing of entries alongside the reported Kd.

A selection of reference data follows.
sequence_code | value_reported
QFIHFYREPV | ≥ 41.3 µM
QYVRSGKDHV | ≥ 70.4 µM

API: the following record is the query input.
**Query** Which measured Kd belongs to `VKIPTHRHI` , tested on HLA-A*01:01?
**Result** ≥ 78.1 µM

---

Listed below: Kd values for each entry.
biological target: HLA-A*23:01; assay: IEDB peptide-MHC binding, purified MHC/competitive/radioactivity; filed as Kd, often an IC50 or EC50 that approximates it; bounds were set here for any values at or beyond the usual limits of such assays; details: source organism: SARS coronavirus Tor2

sequence_code | target_system | Kd
LYLTQDLFL | HLA-A*23:01 | ≥ 81.7 µM

**Query** Consider the sequence `YEDQDALFAY` and give its measured Kd.
**Result** ≥ 70 µM
